Known protein stability index of a selection of variants
B1: DVL3 (parent)
chain: FPELGYSYGGGSASSQHSEGSRSS

- Variants of: B1
- Protocol Summary: protein stability index of a GFP-peptide fusion (GPS, HEK-293T) (PSI 1-6); higher = more stable;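 also: lentivirally expressed fusions sorted by FACS into six bins by GFP to DsRed ratio, PSI derived from sequencing read proportions per bin multiplied by bin number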
- Test Settings: c terminus: a fixed tail appended
Readout: protein stability index

- A13H: 2.73
- S7C: 1.84
- E3Y: 2.61
- S23G: 3.26
- A13Y: 2.49
- R22G: 3.53
- A13G: 3.04
- G11I: 2.22
- A13V: 3.12
- Q16Y: 2.69
- G9W: 1.58
- S12K: 2.82
- Y8Q: 4.06
- S21H: 2.94
- P2N: 4.26
- F1E: 5.18
- S14V: 2.96
- L4T: 3.77
- E3K: 2.62
- H17A: 3.12
- G5Y: 2.5
- E19W: 1.81
- F1D: 5.2
- S7G: 2.5
- G10D: 3.67
- P2L: 2.86
- G20D: 3.7
- P2G: 3.12
- L4Y: 2.57
- R22H: 3.24
- P2Q: 3.02
- H17E: 3.29
- S14Q: 2.99
- E19G: 2.87
- S14R: 3.25
- H17T: 3.12
- S12T: 3.29
- E3W: 2.99
- G10K: 3.61
- E3G: 2.12
- S18F: 2.77
- Q16W: 2.27
- P2V: 4.01
- S24E: 4.02
- G5V: 3.64
- G20R: 3.15
